Overview of recorded % Positive cells for various binders
Biological target: T1, human CCR8 (human, UniProt P51685 1-355)
T1 construct: Native CCR8 on human PBMC (CCR8+ CD3+ or CCR8+ CD4+ lymphocytes); also called chemokine (C-C motif) receptor 8
T1 sequence (P51685 whole entry): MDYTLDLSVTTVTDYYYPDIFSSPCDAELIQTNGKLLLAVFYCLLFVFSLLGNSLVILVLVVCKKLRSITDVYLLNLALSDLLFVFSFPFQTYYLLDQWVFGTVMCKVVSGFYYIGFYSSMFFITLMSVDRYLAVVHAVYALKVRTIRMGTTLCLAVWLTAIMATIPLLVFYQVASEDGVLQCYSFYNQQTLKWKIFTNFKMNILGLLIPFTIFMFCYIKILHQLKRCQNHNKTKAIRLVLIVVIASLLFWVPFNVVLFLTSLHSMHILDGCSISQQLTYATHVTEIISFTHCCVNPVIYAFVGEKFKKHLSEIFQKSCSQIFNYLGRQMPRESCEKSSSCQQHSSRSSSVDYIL
Experiment: flow blocking, PBMC CCR8+CD4+; competitor PE-AB15
Procedure: For blocking studies, 100 μL of the cell suspension were incubated with 10 μg purified isotype control, AB1, AB2, AB3, AB4, AB5, AB8, AB9, AB10, AB11, AB12, AB13, AB14, AB15, and Commercial ABI antibodies, or isotype control, as blocking agents. […]
Write the numeric value and follow it with the unit.

Would you please look over these solved cases?
Q: Which % Positive cells reading was recorded for the binder AB2 (antibody, V domains shown, Hybridoma monoclonal; Same VH/VL entries as AB1; also called antibody 2; clone 2) VH: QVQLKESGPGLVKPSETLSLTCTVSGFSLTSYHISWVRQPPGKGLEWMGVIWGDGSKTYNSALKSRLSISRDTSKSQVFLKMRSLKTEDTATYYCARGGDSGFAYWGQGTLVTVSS VL: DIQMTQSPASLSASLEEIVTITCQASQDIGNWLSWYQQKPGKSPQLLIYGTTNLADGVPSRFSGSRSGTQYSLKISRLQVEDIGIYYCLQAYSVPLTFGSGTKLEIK ?
Ans: 1.53%

Q: Field entry: AB11 (antibody, V domains shown, Hybridoma monoclonal; also called antibody 11; clone 11) VH: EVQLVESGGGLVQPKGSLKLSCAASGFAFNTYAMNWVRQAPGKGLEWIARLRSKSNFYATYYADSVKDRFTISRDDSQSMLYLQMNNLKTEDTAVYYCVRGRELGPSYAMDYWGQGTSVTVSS VL: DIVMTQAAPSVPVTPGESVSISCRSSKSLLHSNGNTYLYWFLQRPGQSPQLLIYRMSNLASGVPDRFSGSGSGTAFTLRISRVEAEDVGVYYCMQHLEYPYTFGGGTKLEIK
Ans: 0.08%

Please examine the following record next.
Q: Which % Positive cells reading was recorded for the binder AB15 (antibody, V domains shown, Hybridoma monoclonal; Same VH/VL entries as AB14; also called antibody 15; clone 15) VH: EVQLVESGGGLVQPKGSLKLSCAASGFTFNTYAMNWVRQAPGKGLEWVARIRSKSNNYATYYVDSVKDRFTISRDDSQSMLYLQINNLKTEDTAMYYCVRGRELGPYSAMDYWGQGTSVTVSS VL: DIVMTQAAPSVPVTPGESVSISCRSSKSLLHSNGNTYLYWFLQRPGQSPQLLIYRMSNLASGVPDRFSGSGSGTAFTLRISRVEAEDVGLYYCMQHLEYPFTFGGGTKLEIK ?
Ans: 0.08%
